Molecular target: T1, human CTLA4 (soluble analyte of the Biacore assays of Reference Example 3-3) (human, UniProt P16410 36-161)
T1 construct: also called hCTLA4
T1 sequence: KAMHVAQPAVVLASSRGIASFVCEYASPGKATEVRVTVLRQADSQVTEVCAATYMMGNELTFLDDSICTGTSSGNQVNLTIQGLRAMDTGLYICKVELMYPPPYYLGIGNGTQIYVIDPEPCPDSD
Experiment: SPR, 1000 nM CTLA4, per unit antibody, ATP 1 uM
Exercise: state measured Binding to Human CTLA4 for each of the binders provided.
// no unit, no text: just the number

So, 04H1207-G1m/04L1086-lam1 (antibody, human IgG1, lambda, V domains shown) VH: EVQLVESGGGLVKPGGSLRLSCAASGFTFSSKTMNWVRQAPGKGLEWVSSISTRSGYIYYAESVKGRFTISRDNAKNSLYLQMNSLRAEDTAVYYCARYGKREDMLWVFDYWGQGTLVTVSS VL: QSALTQPPSASGSPGQTVTISCDGPSTGVGDYNYVHWYQQHPGKAPKLMIYFTSKKPSGVPDRFSGSKSGNTASLTVSGLQAEDEADYFCQTYAAPLGPMFGGGTKLTVLG ? Its Binding to Human CTLA4 was 0.047

The binder listed as 04H1077-G1m/04L1305-k0MT (antibody, human IgG1, kappa, V domains shown) VH: EVQLVESGGDLVKPGGGLRLSCAASGFTFSSRTMNWVRQAPGKGLEWVSSISTRSGYIYYAESVKGRFTISRDNAKNSLYLQMNSLRAEDTAVYYCARYGKREDMLWVFDYWGQGTLVTVSS VL: DIVMTQSPLSLPVTPGEPASISCDGPSTGVGDYNYVHWYQQKPGQAPRLLIYFTSKKPSGVPDRFSGSGSGTDFTLKISRVEAEDVGVYYCQTYAAPLGPMFGQGTKLEIKR has a reported Binding to Human CTLA4 of 0.046

Summary for this binder, 04H1077-G1m/04L1041-lam1 (antibody, human IgG1, lambda, V domains shown) VH: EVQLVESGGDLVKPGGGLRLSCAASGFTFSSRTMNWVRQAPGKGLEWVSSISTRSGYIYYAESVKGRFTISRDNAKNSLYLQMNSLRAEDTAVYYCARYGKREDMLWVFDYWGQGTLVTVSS VL: QSALTQPPSASGSPGQTVTISCDGPSTDVGDYNYVHWYQQHPGKAPKLMIYFTSKKPSGVPDRFSGSKSGNTASLTVSGLQAEDEADYFCSTYAAPLGPMFGGGTKLTVLG : Binding to Human CTLA4 is 0.023

Documented Binding to Human CTLA4 of 04H1077-G1m/04L1034-lam1 (antibody, human IgG1, lambda, V domains shown) VH: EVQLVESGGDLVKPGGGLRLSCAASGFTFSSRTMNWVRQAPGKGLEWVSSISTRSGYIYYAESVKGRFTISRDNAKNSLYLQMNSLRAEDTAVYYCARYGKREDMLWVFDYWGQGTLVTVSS VL: QSALTQPPSASGSPGQTVTISCDGPSTDVGDYNWVSWYQQHPGKAPKLMIYFTSKKPSGVPDRFSGSKSGNTASLTVSGLQAEDEADYFCSTYAAPLGPMFGGGTKLTVLG : 0.007
